Data origin: ChEMBL document CHEMBL5724914

Assay: The drug is tested on Z-029 corresponding to rat gut metagenome with ENA study accession number: PRJEB37062 and ENA sample accession number: ERS12561828 for biotransformation under anaerobic condition. The drug concentrations were measured over 9 timepoints collected between 0 and 24 hours of incubation by liquid-chromatography-coupled mass spectrometry (LC–MS); further: call rule not given here
Conditions: 2 µM

{"columns": ["compound", "Bacterial Biotransformation"],
 "data": [
  ["CNCCC(Oc1ccc(C(F)(F)F)cc1)c1ccccc1 (centres undefined) [FLUOXETINE]", "Compound NOT metabolized"],
  ["COc1ccc2c(c1OC)C(=O)O[C@@H]2[C@H]1c2c(cc3c(c2OC)OCO3)CCN1C [NOSCAPINE]", "Compound NOT metabolized"],
  ["C#C[C@]1(O)CC[C@H]2[C@@H]3CCC4=CC(=O)CC[C@@H]4[C@H]3CC[C@@]21CC [LEVONORGESTREL]", "Compound NOT metabolized"]
]}

###

Settings: human gut metagenome, 24 h, 2 µM
measurement_kind: Bacterial Biotransformation

Worked cases, answers included:
{"columns": ["molecule", "Bacterial Biotransformation"],
 "data": [
  ["CCc1nn(CCCN2CCN(c3cccc(Cl)c3)CC2)c(=O)n1CCOc1ccccc1", "Compound metabolized"],
  ["COC(=O)C1=C(C)NC(C)=C(C(=O)OC(C)C)C1c1cccc2nonc12 (stereo not drawn)", "Compound metabolized"],
  ["OCCOCCN1CCN(C2=Nc3ccccc3Sc3ccccc32)CC1", "Compound NOT metabolized"],
  ["CO[C@]12C[C@@H](COC(=O)c3cncc(Br)c3)CN(C)[C@@H]1Cc1cn(C)c3cccc2c13", "Compound NOT metabolized"],
  ["CS(=O)(=O)O.OC(CCN1CCCCC1)(c1ccccc1)c1ccccc1 [PRIDINOL METHANESULFONATE]", "Compound NOT metabolized"]
]}

Dear colleague, could you send me Bacterial Biotransformation for each of the items below? Thanks.
1. CCCC1O[C@@H]2C[C@H]3[C@@H]4CCC5=CC(=O)C=C[C@]5(C)[C@H]4[C@@H](O)C[C@]3(C)[C@]2(C(=O)CO)O1 (stereo partly drawn) [BUDESONIDE]
2. COc1cc2nc(N3CCN(C(=O)c4ccco4)CC3)nc(N)c2cc1OC
3. Nc1nc2ccc(OC(F)(F)F)cc2s1

Given back:
Compound metabolized
Compound NOT metabolized
Compound NOT metabolized

###

Assay: The drug is tested on WLS-170 corresponding to human gut metagenome with ENA study accession number: PRJEB37062 and ENA sample accession number: ERS12561762 for biotransformation under anaerobic condition. The drug concentrations were measured over 9 timepoints collected between 0 and 24 hours of incubation by liquid-chromatography-coupled mass spectrometry (LC–MS)
Details: 2 µM
measurement_kind: Bacterial Biotransformation

Worked cases, answers included:
{"columns": ["compound", "val"],
 "data": [
  ["CC(C)(C(=O)O)c1ccc(C(O)CCCN2CCC(C(O)(c3ccccc3)c3ccccc3)CC2)cc1 (stereo not given) [FEXOFENADINE]", "Compound NOT metabolized"],
  ["COc1ccccc1OCC(O)COC(N)=O (stereo not given) [METHOCARBAMOL]", "Compound NOT metabolized"],
  ["CCN(CC)CC#CCOC(=O)C(O)(c1ccccc1)C1CCCCC1.Cl (stereo not given) [OXYBUTYNIN CHLORIDE]", "Compound metabolized"],
  ["CC[C@H](C)C(=O)O[C@H]1C[C@@H](C)C=C2C=C[C@H](C)[C@H](CC[C@@H]3C[C@@H](O)CC(=O)O3)[C@H]21 [LOVASTATIN]", "Compound NOT metabolized"],
  ["CC(=O)CC(c1ccccc1)c1c(O)c2ccccc2oc1=O (stereo not given) [WARFARIN]", "Compound metabolized"],
  ["CCN1CCCC1CNC(=O)c1cc(S(N)(=O)=O)ccc1OC (stereo not given) [SULPIRIDE]", "Compound metabolized"]
]}

Dear colleague, could you send me Bacterial Biotransformation for each of the items below? Thanks.
1. Cc1ccnc2c1NC(=O)c1cccnc1N2C1CC1 [NEVIRAPINE]
2. COc1cc2c(c(OC)c1OC)-c1ccc(OC)c(=O)cc1[C@@H](NC(C)=O)CC2 [COLCHICINE]
3. Nc1ccc(/N=N/c2ccccc2)c(N)n1 [PHENAZOPYRIDINE]
4. COCCc1ccc(OCC(O)CNC(C)C)cc1.COCCc1ccc(OCC(O)CNC(C)C)cc1.O=C(O)C(O)C(O)C(=O)O (stereo not given) [METOPROLOL TARTRATE]

Given back:
1. Compound metabolized
2. Compound metabolized
3. Compound metabolized
4. Compound metabolized
